- assay: in vitro
- settings: rat, gh3-tre-luc cells, AC50 (uM) modified / 1000, Tox21_110001=Tox21_300912; viability, 1 nM T3 present, 24 h
recorded_metric: CC50 at 24 h

Req: Dear colleague, I am looking for the recorded CC50 at 24 h of the following molecule: CN=C=S [Methyl isothiocyanate]
Resp: > 200 µM

---

// reported CC50 at 24 h per item
- assay: in vitro
- settings: rat, gh3-tre-luc cells, AC50 (uM) modified / 1000
Where a name gives a salt, the structure may show the parent alone.

{"columns": ["molecule", "CC50 at 24 h"],
 "data": [
  ["C#CCOc1ccc2c(C)cc(=O)oc2c1", "> 50 µM"],
  ["NCC(O)c1cccc(O)c1 (stereo not drawn) [Norfenefrine hydrochloride]", "> 50 µM"],
  ["N[C@@H]1CCCC[C@H]1N", "> 90 µM"],
  ["Cc1cc(Nc2ccccc2C(=O)O)ccc1Cl", "> 50 µM"],
  ["Cc1cccc(N(C)C(=S)Oc2ccc3c(c2)CCC3)c1 [Tolindate]", "> 50 µM"]
]}

Alright, here's another molecule for you.
Req: Dear colleague, I am looking for the recorded CC50 at 24 h of the following molecule: "CCCCCCCCCc1ccc(O)cc1"
Resp: 41.5 µM

---

- assay: in vitro
- settings: rat, gh3-tre-luc cells, AC50 (uM) modified / 1000, Tox21_110001=Tox21_111567; viability, 1 nM T3 present, 24 h
recorded_metric: CC50 at 24 h

Req: Dear colleague, I am looking for the recorded CC50 at 24 h of the following compound: CNC1=Nc2ccc(Cl)cc2C(c2ccccc2)=[N+]([O-])C1 [Chlordiazepoxide]
Resp: > 50 µM

---

- assay: in vitro
- settings: rat, gh3-tre-luc cells, AC50 (uM) modified / 1000, Tox21_110001=Tox21_202198; viability, 1 nM T3 present, 24 h
Counter-ions that a name gives are not always drawn.
recorded_metric: CC50 at 24 h (µM)
Only the number, expressed in µM, is required.

Req: Dear colleague, I am looking for the recorded CC50 at 24 h of the following compound: NNc1ccccc1 [Phenylhydrazine hydrochloride]
Resp: 40.6

---

- Tested on: GH3-TRE-Luc cell line
- settings: read-out: AC50 (uM) modified / 1000; Tox21_110001=Tox21_111007; viability, 1 nM T3 present, 24 h
recorded_metric: CC50 (µM)
Only the number, expressed in µM, is required.

Req: Query the reported CC50 for GH3-TRE-Luc cell line; item: CC1=C(/C=C/C(C)=C/C=C/C(C)=C/C(=O)Nc2ccc(O)cc2)C(C)(C)CCC1 [4-Hydroxyphenyl retinamide]
Resp: 6.39

---

- assay: in vitro
- Set-up: species or system GH3-TRE-Luc (rat pituitary); CellTiter-Fluor viability run in parallel with antagonist mode (1 nM T3), loss of viability
- settings: rat, gh3-tre-luc cells, AC50 (uM) modified / 1000, Tox21_110001=Tox21_300424, viability, 1 nM T3 present
recorded_metric: CC50 at 24 h

Req: Dear colleague, I am looking for the recorded CC50 at 24 h of the following compound: CCOP(=S)(Oc1ccc([N+](=O)[O-])cc1)c1ccccc1 (stereo not shown)
Resp: > 90 µM

---

- assay: in vitro
- settings: rat, gh3-tre-luc cells, AC50 (uM) modified / 1000, Tox21_110001=Tox21_301003; viability, 1 nM T3 present, 24 h
recorded_metric: CC50 at 24 h

Req: Dear colleague, I am looking for the recorded CC50 at 24 h of the following compound: "Cc1nc(N(C)C)nc(OC(=O)N(C)C)c1C"
Resp: > 90 µM

---

- Tested on: GH3-TRE-Luc cell line
- settings: read-out: AC50 (uM) modified / 1000; Tox21_110001=Tox21_201402; viability, 1 nM T3 present, 24 h
recorded_metric: CC50 (µM)
Only the number, expressed in µM, is required.

Req: Dear colleague, I am looking for the recorded CC50 of the following compound: BrC1CCC(Br)C(Br)CCC(Br)C(Br)CCC1Br (stereo not shown)
Resp: 17.5

---

- assay: in vitro
- settings: rat, gh3-tre-luc cells, AC50 (uM) modified / 1000, Tox21_110001=Tox21_201828; viability, 1 nM T3 present, 24 h
recorded_metric: CC50 at 24 h

Req: Dear colleague, I am looking for the recorded CC50 at 24 h of the following compound: "Sc1nc2ccccc2[nH]1"
Resp: > 90 µM

---

- assay: in vitro
- settings: rat, gh3-tre-luc cells, AC50 (uM) modified / 1000, Tox21_110001=Tox21_400051; viability, 1 nM T3 present, 24 h
recorded_metric: CC50 at 24 h

Req: Dear colleague, I am looking for the recorded CC50 at 24 h of the following molecule: O=S(=O)(O)C(F)(F)C(F)(F)C(F)(F)C(F)(F)F [Potassium perfluorobutanesulfonate]
Resp: > 100 µM

---

- assay: in vitro
- settings: rat, gh3-tre-luc cells, AC50 (uM) modified / 1000, Tox21_110001=Tox21_302809; viability, 1 nM T3 present, 24 h
recorded_metric: CC50 at 24 h (µM)
Only the number, expressed in µM, is required.

Req: Dear colleague, I am looking for the recorded CC50 at 24 h of the following compound: O=C(CCl)CCl [1,3-Dichloropropanone]
Resp: 27.3

---

- assay: in vitro
- settings: rat, gh3-tre-luc cells, AC50 (uM) modified / 1000, Tox21_110001=Tox21_300964; viability, 1 nM T3 present, 24 h
recorded_metric: CC50 at 24 h

Req: Dear colleague, I am looking for the recorded CC50 at 24 h of the following compound: O=C(CCl)NCO [2-Chloro-N-(hydroxymethyl)acetamide]
Resp: > 90 µM

---

- assay: in vitro
- settings: rat, gh3-tre-luc cells, AC50 (uM) modified / 1000
Where a name gives a salt, the structure may show the parent alone.
// reported CC50 at 24 h per item

Req: Dear colleague, I am looking for the recorded CC50 at 24 h of the following compound: CCC[C@@H]1C[C@@H](C(=O)N[C@@H]([C@H]2O[C@H](SC)[C@H](O)[C@@H](O)[C@H]2O)[C@@H](C)O)N(C)C1 [Lincomycin hydrochloride]
Resp: > 50 µM

Req: Dear colleague, I am looking for the recorded CC50 at 24 h of the following compound: CC(=O)OCCC(C)CC(C)(C)C (stereo not shown) [3,5,5-Trimethylhexyl acetate]
Resp: > 90 µM

Req: Dear colleague, I am looking for the recorded CC50 at 24 h of the following compound: "CCn1cc(C(=O)O)c(=O)c2cnc(N3CCCC3)nc21"
Resp: > 20 µM

Req: Dear colleague, I am looking for the recorded CC50 at 24 h of the following compound: "c1cc(CCCc2ccncc2)ccn1"
Resp: > 90 µM

Req: Dear colleague, I am looking for the recorded CC50 at 24 h of the following compound: CCCCC(CC)CCC(CC(C)C)OS(=O)(=O)O (stereo not shown)
Resp: > 90 µM

---

- Tested on: GH3-TRE-Luc cell line
- settings: read-out: AC50 (uM) modified / 1000; Tox21_110001=Tox21_201030; viability, 1 nM T3 present, 24 h
recorded_metric: CC50 (µM)
Only the number, expressed in µM, is required.

Req: Query the reported CC50 for GH3-TRE-Luc cell line; item: "Nc1ccc(O)cc1"
Resp: 17.1

---

- assay: in vitro
- settings: rat, gh3-tre-luc cells, AC50 (uM) modified / 1000, Tox21_110001=Tox21_201952; viability, 1 nM T3 present, 24 h
recorded_metric: CC50 at 24 h

Req: Dear colleague, I am looking for the recorded CC50 at 24 h of the following molecule: CC(O)CN(CC(C)O)CC(C)O (stereo not shown) [Triisopropanolamine]
Resp: > 90 µM

---

- assay: in vitro
- settings: rat, gh3-tre-luc cells, AC50 (uM) modified / 1000, Tox21_110001=Tox21_200580; viability, 1 nM T3 present, 24 h
recorded_metric: CC50 at 24 h

Req: Dear colleague, I am looking for the recorded CC50 at 24 h of the following molecule: CNC [Dimethylammonium nitrate]
Resp: > 90 µM

---

- assay: in vitro
- settings: rat, gh3-tre-luc cells, AC50 (uM) modified / 1000
recorded_metric: CC50 at 24 h

Some solved entries appear below for comparison.
{"columns": ["molecule", "CC50 at 24 h"],
 "data": [
  ["CCN(CC)CCOc1ccccc1OC", "> 50 µM"],
  ["O=C(O)CCc1ccccc1 [Hydrocinnamic acid]", "> 90 µM"],
  ["COC(=O)C1=C(C)NC(C)=C(C(=O)OCC(C)C)C1c1ccccc1[N+](=O)[O-] (stereo not drawn)", "51.4 µM"],
  ["Cc1ncc([N+](=O)[O-])n1C", "> 90 µM"],
  ["COC1=C(OC)C(=O)C(C/C=C(\\C)CC/C=C(\\C)CC/C=C(\\C)CC/C=C(\\C)CC/C=C(\\C)CC/C=C(\\C)CC/C=C(\\C)CC/C=C(\\C)CC/C=C(\\C)CCC=C(C)C)=C(C)C1=O", "> 50 µM"]
]}

Req: Dear colleague, I am looking for the recorded CC50 at 24 h of the following molecule: "OCCNCCO"
Resp: > 90 µM
